Target or system: SARS-CoV-2 spike protein (SARS-CoV-2), P0DTC2
Run description: HT-SPR, Carterra LSA; mAb coupled to chip, antigen injected; 1:1 fit
Cond: remark: other sources report otherwise
Test readout: kon (M⁻¹ s⁻¹)
Field format: number, assumed M⁻¹ s⁻¹, no unit text.

Please review the entries below; each comes with its answer.
| Binder | kon, M⁻¹ s⁻¹ |
| --- | --- |
| antibody 521 (antibody, V domains shown) VH: QVQLVESGGGVVQPGRSLRLSCAASGFTFSSYGMHWVRQAPGKGLEWVAVIWYDGSNKYYADSVKGRFTISRDNSKNTLYLQMNSLRAEDTAVYYCAREGNDYGDYGEWELLGYFDYWGQGTLVTVSS VL: SYELTQPPSVSVSPGQTARITCSGDALPKKYAYWYQQKSGQAPVLVIYEDSKRPSGIPERFSGSSSGTMATLTISGAQVEDEADYYCYSTDSSGNHRRVFGGGTKLTVL | 30200 |
| antibody 499 (antibody, V domains shown) VH: EVQLVESGGGLVKPGGSLRLSCAASGFTFSSYSMNWVRQAPGKGLEWVSSISSSSSYIYYADSVKGRFTISRDNAKNSLYLQMNSLRAEDTAVYYCARAPAGIVVGPDYWGQGTLVTVSS VL: NFMLTQPHSVSESPGKTVTISCTGSSGSIASNYVQWYQQRPGSAPTTVIFEDNQRPSGVPDRFSGSIDSSSNSASLTISGLKTEDEADYYCQSYHSSNPHVVFGGGTKLTVL | 63300 |

As a next step, examine the binder that follows.
Inquiry: Sample antibody 495 (antibody, V domains shown) VH: QITLKESGPTLVKPTQTLTLTCTFSGFSLSTSGVGVGWIRQPPGKALEWLALIYWDDDKRYSPSLKSRLTITKDTSKNQVVLIMTNMDPVDTATYYCAHRDSSSWFDLDAFDIWGQGTMVIVSS VL: QSVLTQPPSVSEAPRQRVTISCSGSSSNIGNNAVNWYQQLPGKAPKLLIYYDDLLPSGVSDRFSGSKSGTSASLAISGLQSEDEADYYCAAWDDRLNGPVFGGGTKLTVL — what was its kon?
Reply text: 216000
